test: GHS categories as the set defines them, by LD50: 1 up to 5, 2 up to 50, 3 up to 300, 4 up to 2000, 5 above 2000 mg/kg; conditions: rat; in vivo; po
metric: GHS category
Note: the reply should be a number with no unit written.

Worked cases, GHS category given:
[
  {
    "molecule": "Brc1cc(Br)c(Oc2nc(Oc3c(Br)cc(Br)cc3Br)nc(Oc3c(Br)cc(Br)cc3Br)n2)c(Br)c1",
    "metric": "GHS category",
    "observed_result": 5
  },
  {
    "molecule": "COc1ccccc1C1C(Cl)C(=O)N1NC(=O)c1ccccc1O (centres undefined)",
    "metric": "GHS category",
    "observed_result": 5
  },
  {
    "molecule": "O=S(=O)(O)c1ccc2c(c1)-c1nc-2nc2[nH]c(nc3nc(nc4[nH]c(n1)c1ccc(S(=O)(=O)O)cc41)-c1ccc(S(=O)(=O)O)cc1-3)c1ccc(S(=O)(=O)Nc3ccc(S(=O)(=O)CCO)cc3)cc21",
    "metric": "GHS category",
    "observed_result": 5
  }
]

Could you now look at the following molecule, please?
Noted for CC(C)(C)[C@H](NC(=O)OCc1ccccc1)C(=O)O : its GHS category reads 4
